Target: AChE (Electrophorus electricus, UniProt O42275)
Construct: native enzyme, Type V-S lyophilized powder, Sigma-Aldrich
Sequence (O42275 24-633): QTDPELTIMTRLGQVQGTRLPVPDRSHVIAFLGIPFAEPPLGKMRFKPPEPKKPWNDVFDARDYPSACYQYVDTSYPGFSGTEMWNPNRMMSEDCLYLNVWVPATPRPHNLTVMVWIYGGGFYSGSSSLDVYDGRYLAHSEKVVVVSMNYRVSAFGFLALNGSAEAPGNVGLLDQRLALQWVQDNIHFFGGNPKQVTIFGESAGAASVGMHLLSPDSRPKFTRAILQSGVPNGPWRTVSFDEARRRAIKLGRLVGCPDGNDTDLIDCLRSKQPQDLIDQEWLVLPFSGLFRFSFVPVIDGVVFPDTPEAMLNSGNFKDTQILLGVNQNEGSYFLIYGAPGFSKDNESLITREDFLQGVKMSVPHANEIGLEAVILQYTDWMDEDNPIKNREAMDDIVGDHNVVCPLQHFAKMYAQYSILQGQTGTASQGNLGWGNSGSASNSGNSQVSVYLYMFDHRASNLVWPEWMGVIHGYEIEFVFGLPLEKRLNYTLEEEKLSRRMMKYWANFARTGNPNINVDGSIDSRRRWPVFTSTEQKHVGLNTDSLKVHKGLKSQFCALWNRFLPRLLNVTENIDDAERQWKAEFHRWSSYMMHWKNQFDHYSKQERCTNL
Test: Ellman colorimetric assay
Format: biochemical
Conditions: read-out: IC50 ± SD / AChE ^a
measurementName: IC50 (nM)
Report only the number, with the unit nM understood.

I have this molecule here, `O=C(Oc1ccc2[nH]cc(CCN(Cc3ccccc3)Cc3ccccc3)c2c1)N1CCC1` , and I need its recorded IC50.
742

Pending molecule:
What does the record list as IC50 for `CON(C)C(=O)Oc1ccc2[nH]cc(CCN(Cc3ccccc3)Cc3ccccc3)c2c1` ?
2930

----------
Reported pIC50 values for a set of compounds
Target: BuChE (Equus caballus, UniProt P81908)
Sequence (P81908 whole entry): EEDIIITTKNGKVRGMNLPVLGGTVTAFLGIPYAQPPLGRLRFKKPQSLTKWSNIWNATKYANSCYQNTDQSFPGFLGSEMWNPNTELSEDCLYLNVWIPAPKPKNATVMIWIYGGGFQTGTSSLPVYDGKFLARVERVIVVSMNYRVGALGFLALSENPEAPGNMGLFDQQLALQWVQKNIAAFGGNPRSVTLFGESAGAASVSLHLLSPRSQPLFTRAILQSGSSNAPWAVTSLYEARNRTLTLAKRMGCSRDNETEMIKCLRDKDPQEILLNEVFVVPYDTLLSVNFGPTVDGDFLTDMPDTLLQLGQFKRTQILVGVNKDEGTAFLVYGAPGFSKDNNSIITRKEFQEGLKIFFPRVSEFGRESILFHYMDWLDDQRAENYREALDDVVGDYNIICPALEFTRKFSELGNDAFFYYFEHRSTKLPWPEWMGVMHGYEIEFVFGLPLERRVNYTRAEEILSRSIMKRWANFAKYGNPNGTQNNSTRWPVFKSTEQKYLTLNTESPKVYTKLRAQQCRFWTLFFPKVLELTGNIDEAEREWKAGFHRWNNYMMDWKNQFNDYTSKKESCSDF
Test: Ellman colorimetric assay
Type: biochemical
Parameters: gene BCHE; native enzyme from equine serum, purchased from Sigma-Aldrich
Conditions: read-out: IC50 ± SD / BuChE ^a
Please treat pIC50 as minus the base-10 logarithm of the molar concentration.

Recorded results for 6 compounds are shown here.
Entry `CON(C)C(=O)Oc1ccc2[nH]cc(CCN(Cc3ccccc3)Cc3ccccc3)c2c1` : reported pIC50 = ?
8.06

How about `CCCCCCNC(=O)Oc1ccc2[nH]cc(CCN(Cc3ccccc3)Cc3ccccc3)c2c1` ?
8.83

Would you mind doing `CCCNC(=O)Oc1ccc2[nH]cc(CCN(Cc3ccccc3)Cc3ccccc3)c2c1` as well?
7.48

Then `CCCCCCCNC(=O)Oc1ccc2[nH]cc(CCN(Cc3ccccc3)Cc3ccccc3)c2c1` ?
8.85

Another compound to look at: `CCCN(CCC)C(=O)Oc1ccc2[nH]cc(CCN(Cc3ccccc3)Cc3ccccc3)c2c1`
7.80

And for `O=C(Oc1ccc2[nH]cc(CCN(Cc3ccccc3)Cc3ccccc3)c2c1)N1CCC1` ?
8.78

Continue with the next compound.
I am curious: what pIC50 value has been reported for `O=C(Nc1ccccc1)Oc1ccc2[nH]cc(CCN(Cc3ccccc3)Cc3ccccc3)c2c1` ?
7.25
